Give FPDc (field-potential duration corrected by beat-rate), % change from baseline for every item shown.
Tested on: hiPSC-CMs (iCell-Cardiomyocytes^2)
RECORDED_CONDITIONS: 0.1 µM, 24h
Form field: result (number plus unit)

# COMPOUND, ASSAY_RESULT
records = [
    ("O=C(O)COCCN1CCN(C(c2ccccc2)c2ccc(Cl)cc2)CC1 (stereo not drawn)", "9.7±1.6%"),
    ("COc1cc2c(Nc3ccc(Br)cc3F)ncnc2cc1OCC1CCN(C)CC1", "44.1±5.9 %"),
]

Alright, here's another compound for you.
Exercise: Need FPDc (field-potential duration corrected by beat-rate), % change from baseline, item Cc1cn(-c2cc(NC(=O)c3ccc(C)c(Nc4nccc(-c5cccnc5)n4)c3)cc(C(F)(F)F)c2)cn1
Key: 16.6±4.1 %
